Data origin: patent US10287267B2

I'd appreciate it if you could supply pEC50 values for the items below.
# experimental.system: recombinant DYRK1A kinase (Homo sapiens (Human))
# method.notes: DYRK1A kinase assay (Ser/Thr 18 peptide Z-lyte FRET);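 further: Read-out is the coumarin to fluorescein emission ratio, referenced to unphosphorylated (0%) and phosphorylated (100%) Ser/Thr 18 peptide controls, values from dose-response curves by non-linear regression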
# measurement.parameters: 30 μM ATP, 1 h room temperature
Recall that pEC50 is obtained by taking minus log10 of the concentration measured in molar.

Q. Specify reported pEC50 for the molecule shown: CN1CCCC(C(=O)Nc2cc3cc(-c4cnn(C)c4)ccc3cn2)CC1 (stereo not drawn)
A. 8.49

Q. Tell me its pEC50 given Cn1cncc1-c1ccc2cnc(NC(=O)[C@H]3CC[C@H](CO)CC3)cc2c1 as the entry.
A. 9.05

Q. Find the measured pEC50 of Cn1cc(-c2ccc3cnc(NC(=O)CN4CC[C@@H](F)C4)cc3c2)cn1 and report it.
A. 8.23

Q. Determine its reported pEC50: Cc1ncc(-c2ccc3cnc(NC(=O)[C@H]4CC[C@H](N5CCOCC5)CC4)cc3c2)o1
A. 8.17

Q. Using known records, supply pEC50 for Cn1cc(-c2ccc3cnc(NC(=O)CN4CCC(F)CC4)cc3c2)cn1
A. 8.37

Q. Fill in reported pEC50 for this entry: CC(C(=O)Nc1cc2cc(-c3cncn3C)ccc2cn1)N1CCCC1 (stereo not drawn)
A. 7.60

Q. Report measured pEC50; entry is CC(C)CN1CCC(C(=O)Nc2cc3cc(-c4nnnn4C)ccc3cn2)CC1
A. 7.20

Q. Note down pEC50 recorded for CC#CC(=O)Nc1cc2cc(-c3cnn(C)c3)ccc2cn1
A. 8.30

Q. Give pEC50 for Cn1cncc1-c1ccc2cnc(NC(=O)C3(F)CC3)cc2c1
A. 8.80
